Values from the supplement of paper PMC6379048

Kd: recorded values
- Target Desc: SYMPK (UniProt Q92797)
- Sequence: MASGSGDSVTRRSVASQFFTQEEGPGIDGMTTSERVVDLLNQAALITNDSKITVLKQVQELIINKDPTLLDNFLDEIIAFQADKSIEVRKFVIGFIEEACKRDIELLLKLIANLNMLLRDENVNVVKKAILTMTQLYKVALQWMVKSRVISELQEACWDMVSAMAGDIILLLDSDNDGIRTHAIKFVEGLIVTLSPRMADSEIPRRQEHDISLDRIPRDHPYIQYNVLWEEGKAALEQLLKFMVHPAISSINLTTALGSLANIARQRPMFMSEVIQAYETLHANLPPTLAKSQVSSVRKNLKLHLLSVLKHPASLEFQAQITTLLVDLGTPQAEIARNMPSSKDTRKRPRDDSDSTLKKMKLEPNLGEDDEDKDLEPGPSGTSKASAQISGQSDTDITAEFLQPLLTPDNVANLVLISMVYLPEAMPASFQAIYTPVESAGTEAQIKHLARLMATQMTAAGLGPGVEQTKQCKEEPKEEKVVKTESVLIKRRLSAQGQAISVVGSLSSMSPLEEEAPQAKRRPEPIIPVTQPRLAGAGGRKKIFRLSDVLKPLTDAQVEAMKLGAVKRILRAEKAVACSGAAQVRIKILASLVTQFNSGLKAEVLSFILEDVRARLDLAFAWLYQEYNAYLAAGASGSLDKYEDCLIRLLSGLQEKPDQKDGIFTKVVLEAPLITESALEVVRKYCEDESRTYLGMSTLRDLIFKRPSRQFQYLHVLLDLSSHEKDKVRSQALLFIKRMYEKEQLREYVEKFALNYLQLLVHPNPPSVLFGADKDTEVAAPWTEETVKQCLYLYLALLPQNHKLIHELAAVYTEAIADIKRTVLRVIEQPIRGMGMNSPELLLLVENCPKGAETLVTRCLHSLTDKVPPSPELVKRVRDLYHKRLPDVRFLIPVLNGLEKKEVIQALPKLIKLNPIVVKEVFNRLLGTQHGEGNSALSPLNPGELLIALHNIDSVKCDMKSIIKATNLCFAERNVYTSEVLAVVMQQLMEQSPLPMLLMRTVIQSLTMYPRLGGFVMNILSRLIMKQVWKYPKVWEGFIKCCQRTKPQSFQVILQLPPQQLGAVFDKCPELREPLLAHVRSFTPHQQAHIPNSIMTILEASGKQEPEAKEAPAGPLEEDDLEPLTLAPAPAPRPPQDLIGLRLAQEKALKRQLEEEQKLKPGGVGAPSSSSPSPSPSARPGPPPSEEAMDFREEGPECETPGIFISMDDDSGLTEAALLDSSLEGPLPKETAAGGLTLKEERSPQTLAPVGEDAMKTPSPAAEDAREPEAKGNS
- Assay Text: Kd (EC50 corrected by depletion factor)

{"columns": ["Polymer Sequence", "Unit Of Measure", "Kd"],
 "data": [
  ["AAUAAA", "nM", 12.7],
  ["UAUUUAU", "nM", 254]
]}
